Assay: Prodrug stability in D2O by proton NMR
Assay type: physicochemical
Settings: D2O, 29.5 mg in 0.7 mL
metric: half-life at 42.1 mg/mL

Q. For the compound shown here, CC(=O)Nc1ccc(OC(=O)OP(=O)(O)O)cc1 , give the reported half-life at 42.1 mg/mL.
A. ~1.5 h
